All figures here come from patent US20260265403A1.

# ASSAYED_SYSTEM: T1, human CD24 on cells (human, UniProt P25063 27-59)
# T1 construct: whole, on cells; One molecule for all cell lines; the cell line is named under assay or readout; also called cell surface CD24; cell-based CD24
# T1 chain (looked up): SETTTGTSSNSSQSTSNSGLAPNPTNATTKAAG
# PROCEDURE_SUMMARY: flow cytometry (GMFI), MCF-7 cells; EC50 table under the graphs
QUANTITY_MEASURED: EC50 (µg/mL)

{"BINDER": "VH1 + VL1 (humanized 4451) (antibody, V domains shown, IgG expressed in HEK293) VH: QVQLVQSGAEVKKPGASVKVSCKASGYDFTGYHMNWVRQAPGQGLEWMGEINPITSDKTFNQKFKSRVTMTRDTSISTAYMELSRLRSDDTAVYYCARRDYGTSLDYWGQGTTVTVSS VL: DIQLTQSPSFLSASVGDRVTITCRASKSISKYLAWYQQKPGKAPKLLIYAGSTLHSGVPSRFSGSGSGTEFTLTISSLQPEDFATYYCQQHNEYPITFGQGTKLEIK", "VALUE": 0.43}
{"BINDER": "VH4 + VL2 (humanized 4451) (antibody, V domains shown, IgG expressed in HEK293) VH: QVQLVQSGAEVKKPGASVKVSCKASGYDFTGYHMNWVKQAPGQGLEWIGEINPITSDKTFNQKFKSRATMTVDRSISTAYMELSRLRSDDTAVYYCARRDYGTSLDYWGQGTTVTVSS VL: DIQLTQSPSFLSASVGDRVTITCRASKSISKYLAWYQQKPGKAPRLLIYAGSTLHSGVPSRFRGSGSGTEFTLTISSLQPEDFATYYCQQHNEYPITFGQGTKLEIK", "VALUE": 0.44}
{"BINDER": "VH3 + VL3 (humanized 4451) (antibody, V domains shown, IgG expressed in HEK293) VH: QVQLVQSGAEVKKPGASVKVSCKASGYDFTGYHMNWVRQAPGQGLEWIGEINPITSDKTFNQKFKSRATMTVDTSISTAYMELSRLRSDDTAVYYCARRDYGTSLDYWGQGTTVTVSS VL: DIQLTQSPSFLSASVGDRVTITCRASKSISKYLAWYQQKPGKAPKLLIYAGSTLHSGIPSRFRGSGSGTEFTLTISSLQPEDFATYYCQQHNEYPITFGQGTKLEIK", "VALUE": 0.42}
